Source: ChEMBL document CHEMBL1124717

Molecular target: GABA-A receptor; anion channel
Assay: In vitro inhibition of [3H]flunitrazepam binding to GABA-A Benzodiazepine receptor of rat cerebral cortex membranes
List of IC50 values.
Response body: numeric value in nM, unit text excluded.

CCOC(=O)c1[nH]cc2nc3ccc(O)cc3c-2c1COC ... 0.9

The reported value for `CCOC(=O)c1cc2c3cc(OCc4ccccc4)ccc3nc-2c[nH]1` in terms of IC50 is 8.9

The reported value for `CCOC(=O)c1[nH]cc2nc3ccc(OCc4ccccc4)cc3c-2c1CC` in terms of IC50 is 22

The reported value for `CCOC(=O)c1ncc2[nH]c3ccccc3c2c1COC` in terms of IC50 is 2.3

The reported value for `CCOC(=O)c1[nH]cc2nc3ccc(OC)cc3c-2c1COC` in terms of IC50 is 0.5

The reported value for `CCOC(=O)c1ncc2c(c1COC)c1cc(OCc3ccccc3)ccc1n2C` in terms of IC50 is 945

The reported value for `CCOC(=O)c1ncc2[nH]c3ccc(OCc4ccccc4)cc3c2c1COC` in terms of IC50 is 1
